- System: IKK-beta;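 also: KINOMEscan kinase panel screen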
- Construct: gene IKBKB
- Assay conditions: concentration: 1 μM, replicates: in singlicate; n = 1
Property measured: %Inh (%)
Form entry: value (%) — number only.

Example compounds with recorded %Inh:
compound="c1ccc(-c2ccc3c(-c4ccnc(Nc5ccc6c(c5)OCCO6)n4)cnn3n2)cc1 [GW818941]" assay_system=IKK-beta measurement_unit=% endpoint_result=14
compound="Fc1cccc(COc2ccc(Nc3ncnc4nn5ccccc5c34)cc2Cl)c1 [GW689066]" assay_system=IKK-beta measurement_unit=% endpoint_result=0
compound="COc1ccc(-c2oc3ncnc(N)c3c2-c2ccc(OC)cc2)cc1 [SB-589132]" assay_system=IKK-beta measurement_unit=% endpoint_result=4
compound="O=C(c1ccc(-c2cc(-c3c[nH]nc3-c3ccccn3)ccn2)cc1)N1CCCC1 [GW792479]" assay_system=IKK-beta measurement_unit=% endpoint_result=0
compound=OCCOCCn1ccc2ncnc(Nc3ccc(Oc4cccc(Cl)c4)c(Cl)c3)c21 assay_system=IKK-beta measurement_unit=% endpoint_result=0
compound="Cc1cc(N2CCC(NS(=O)(=O)c3ccc(F)cc3)CC2)nc(Nc2cccc(C#N)c2)n1.O=C(O)C(F)(F)F [GSK1653537]" assay_system=IKK-beta measurement_unit=% endpoint_result=2

## Task Which %Inh reading was recorded for the compound COc1cc2c(Nc3cccc(NC(=O)c4ccccc4)c3)ncnc2cc1OCCCN1CCOCC1 [GSK223810] ?
## Result 0

## Task Which %Inh reading was recorded for the compound COc1ccc(Nc2nccc(N3CCC(NC(=O)c4cccc(NC(C)=O)c4)C3)n2)cc1 (stereo not drawn) [GSK1379732] ?
## Result 0

## Task Which %Inh reading was recorded for the compound CSc1ccc(NC2=C(c3ccccc3Cl)C(=O)NC2=O)cc1 [SB-342411] ?
## Result 0

## Task Which %Inh reading was recorded for the compound Nc1nc(-c2cccnc2)c(-c2ccnc3ccccc23)s1 [GW684083] ?
## Result 0

## Task Which %Inh reading was recorded for the compound CC(C)(C)OC(=O)NC1CCCN(c2cc(-c3ccc4c(N)n[nH]c4c3)nc(N)n2)C1 (stereo not drawn) [GSK2286096] ?
## Result 0

## Task Which %Inh reading was recorded for the compound N#Cc1ccc(Oc2ccc(Nc3ncnc4cc[nH]c34)cc2Cl)cc1 ?
## Result 17

## Task Which %Inh reading was recorded for the compound CCCc1ccc(S(=O)(=O)NC2CCN(c3ccnc(Nc4ccc(OC)cc4)n3)C2)cc1 (stereo not drawn) [GSK1379737] ?
## Result 0

## Task Which %Inh reading was recorded for the compound COC(=O)c1cccc(NC(=O)NCCNc2ccnc(Nc3ccc(F)cc3)n2)c1 [GSK1379883] ?
## Result 0

## Task Which %Inh reading was recorded for the compound CNc1nccc(-c2c(-c3ccc(F)cc3)ncn2C2CCN(C)CC2)n1 [SB-222903] ?
## Result 0

## Task Which %Inh reading was recorded for the compound CSc1nn2c(=O)cc(N3CCOCC3)nc2n1Cc1cccc(Cl)c1Cl [GSK2347225] ?
## Result 0

## Task Which %Inh reading was recorded for the compound COc1ccc(NC(=O)c2ccc(-c3cc(-c4nnc(C)o4)ccc3C)cc2)cc1 [GW595885] ?
## Result 24

## Task Which %Inh reading was recorded for the compound Cl.Cl.c1ccc(-c2cc3ccncc3cc2OC2CCNCC2)cc1 [GSK1122999] ?
## Result 98.7
